Parameter peptide exchange yield: see the listing below.
tgt: T1, HLA-A*02:01 (human)
T1 construct: MHC monomers first loaded with a UV-sensitive peptide (not identified) that is cleaved and exchanged for the test peptide; captured on streptavidin-coated plates and detected with anti-β2m; also called peptide-receptive MHC molecules; MHC class I
assay_protocol: UV-ligand exchange, anti-b2m ELISA; peptide exchange yield grade

SMASFLKDV | ≥ 75%
YLADFSHAT | ≥ 75%
ILTDITGHDV | 50 to 75%

Fill in: peptide exchange yield of `ALMDVSQNV` is ___
≥ 75%
